The measured values listed here are drawn from paper PMC3786410.

experimental.readout: IC50 (nM)
Respond with the bare value in nM.

Give recorded IC50 with S1PR2 (Homo sapiens) for the following molecule: Cc1nn(C)c2nc(NNC(=O)Nc3cc(Cl)nc(Cl)c3)cc(C(C)C)c12 53

###

- system.under.test: wild type S1PR2 (Homo sapiens)
- Sequence (O95136 whole entry): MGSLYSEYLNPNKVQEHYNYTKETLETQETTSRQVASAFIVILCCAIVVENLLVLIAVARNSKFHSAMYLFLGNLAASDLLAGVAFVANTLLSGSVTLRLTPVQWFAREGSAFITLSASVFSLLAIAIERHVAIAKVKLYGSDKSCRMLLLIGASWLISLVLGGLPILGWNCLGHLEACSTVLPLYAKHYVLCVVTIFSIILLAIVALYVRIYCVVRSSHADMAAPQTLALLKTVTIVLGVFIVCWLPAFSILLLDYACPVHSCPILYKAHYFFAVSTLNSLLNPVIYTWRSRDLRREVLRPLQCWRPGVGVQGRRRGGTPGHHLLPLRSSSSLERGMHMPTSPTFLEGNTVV
- assay.method.text: GloSensor cAMP assay, wild type S1PR2-eGFP Jump-In CHO cells
- condition.set: read-out: EC50, cAMP response
experimental.readout: EC50

What EC50 value was documented for this compound, Cc1cc(C(=O)Cn2cc(C#N)ccc2=O)c(C)n1Cc1ccccc1 ? 1.6 µM

###

- system.under.test: S1PR2 (Homo sapiens, UniProt O95136)
- Sequence (O95136 whole entry): as above
experimental.readout: Ki (nM)
Respond with the bare value in nM.

What Ki value was documented for this compound, Cc1nn(C)c2nc(NNC(=O)Nc3cc(Cl)nc(Cl)c3)cc(C(C)C)c12 ? 20
